- tgt: Endothelin-converting enzyme 1 (Homo sapiens)
- Sequence (P42892 whole entry): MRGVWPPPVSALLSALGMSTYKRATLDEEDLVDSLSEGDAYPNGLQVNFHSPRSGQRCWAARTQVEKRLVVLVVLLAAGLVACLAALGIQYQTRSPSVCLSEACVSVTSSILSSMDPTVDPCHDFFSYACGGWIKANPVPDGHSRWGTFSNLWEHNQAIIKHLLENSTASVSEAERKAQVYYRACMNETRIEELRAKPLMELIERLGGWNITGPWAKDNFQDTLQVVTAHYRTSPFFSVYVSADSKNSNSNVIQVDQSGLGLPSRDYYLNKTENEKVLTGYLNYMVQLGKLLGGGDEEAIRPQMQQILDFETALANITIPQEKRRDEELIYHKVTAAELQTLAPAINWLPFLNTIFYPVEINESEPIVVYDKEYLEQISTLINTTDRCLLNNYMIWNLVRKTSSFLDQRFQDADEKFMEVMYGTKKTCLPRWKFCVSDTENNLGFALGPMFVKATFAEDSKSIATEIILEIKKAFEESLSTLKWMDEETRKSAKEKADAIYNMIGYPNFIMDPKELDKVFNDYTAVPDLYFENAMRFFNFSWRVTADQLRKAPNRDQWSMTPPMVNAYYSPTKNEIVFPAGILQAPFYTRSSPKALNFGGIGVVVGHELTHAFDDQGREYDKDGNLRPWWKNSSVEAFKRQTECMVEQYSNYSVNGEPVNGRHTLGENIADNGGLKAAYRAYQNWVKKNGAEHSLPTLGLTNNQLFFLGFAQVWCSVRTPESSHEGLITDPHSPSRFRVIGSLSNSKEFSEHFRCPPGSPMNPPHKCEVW
- methodNotes: Inhibitory concentration against endothelin converting enzyme 1 using big-ET-1 substrate in ELISA
pIC50: −log10 of the molar value.
readoutType: pIC50

molecule	number
CC(C)(C)CC(=O)Nc1ccc2c(c1)cc(C(=O)Nc1cccc(C(=O)Nc3ccc(S(C)(=O)=O)cc3)c1)n2Cc1ccccc1F	6.92

[A] CC(C)(C)CC(=O)Nc1ccc2c(c1)cc(C(=O)Nc1cccc(C(=O)Nc3ccc(S(N)(=O)=O)cc3)c1)n2Cc1ccccc1F
[B] CNS(=O)(=O)c1ccc(NC(=O)c2cccc(NC(=O)c3cc4cc(NC(=O)CC(C)(C)C)ccc4n3Cc3ccccc3F)c2)cc1
[C] C[S+]([O-])c1ccc(NC(=O)c2cccc(NC(=O)c3cc4cc(NC(=O)CC(C)(C)C)ccc4n3Cc3ccccc3F)c2)cc1 (centres undefined)
Arrange the 3 molecules by rising pIC50, starting with the smallest. Write the labels out in the order the request specifies.
B, C, A

Measured values drawn from ChEMBL document CHEMBL1141043 for this set.
